src = PubChem BioAssay AID488782

# Target or system: Nuclear receptor subfamily 5 group A member 2 (Homo sapiens)
# Experiment summary: potency against LRH1-driven Cyp19 reporter – cell-based, HEK293T, Cyp19 aromatase-luciferase, luminescence, powder samples, dose response (AID 488782)
# Condition info: 20 h
Endpoint: IC50

Known results for molecules:
[[record]]
item_smiles = "CC(C)Cn1c(=O)cc(N2CCN(c3cccc(C(F)(F)F)c3)CC2)[nH]c1=O"
target_or_system = "Nuclear receptor subfamily 5 group A member 2 (Homo sapiens)"
result = "110 nM"

[[record]]
item_smiles = "CCn1c(=O)cc(N2CCN(c3cccc(Cl)c3)CC2)[nH]c1=O"
target_or_system = "Nuclear receptor subfamily 5 group A member 2 (Homo sapiens)"
result = "4200 nM"

[[record]]
item_smiles = "CCn1c(=O)cc(N2CCN(c3cccc(C(F)(F)F)c3)CC2)[nH]c1=O"
target_or_system = "Nuclear receptor subfamily 5 group A member 2 (Homo sapiens)"
result = "1000 nM"

[[record]]
item_smiles = "O=c1cc(N2CCN(c3cccc(Cl)c3Cl)CC2)[nH]c(=O)n1C1CCCCC1"
target_or_system = "Nuclear receptor subfamily 5 group A member 2 (Homo sapiens)"
result = "430 nM"


Task item: // returns reported IC50 for input `O=c1cc(N2CCN(c3nc(-c4ccccc4)ns3)CC2)[nH]c(=O)n1C1CCCCC1`
Reply: 4800 nM

Task item: Entry to check: `O=c1cc(N2CCN(c3cccc(Cl)c3)CC2)[nH]c(=O)n1C1CCCCC1`
Reply: 3700 nM

Task item: Entry to check: `O=c1cc(N2CCN(C3CCCCC3)CC2)[nH]c(=O)n1C1CCCCC1`
Reply: 921 nM
